assay: NCI Yeast Anticancer Drug Screen. Data for the cln2 rad14 strain (AID 165);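 note: 0% = growth equal to vehicle treated cultures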; details: S. cerevisiae cln2 rad14 strain, at 50.0 µM, hits give high values
Compounds without any hit were thinned out: in the full panel of roughly 79,000, 15% have a hit.
Measured growth inhibition accompanies every entry in the list below.
# number only, unit % dropped from output

COMPOUND: CCN(CC)CCOC(C)=O
OBSERVABLE: growth inhibition
RESULT: 0.7
//
COMPOUND: Cc1ccc(NC(=O)Oc2ccc(C#N)cc2)cc1Cl
OBSERVABLE: growth inhibition
RESULT: 17.8
//
COMPOUND: CCCCCCCCCCCCSC1=C(OC)C(=O)C(OC)=C(OC)C1=O
OBSERVABLE: growth inhibition
RESULT: -5.2
//
COMPOUND: COc1ccc(C(=O)c2cccc(C(=O)c3ccc(OC)cc3)c2)cc1
OBSERVABLE: growth inhibition
RESULT: -0.9
//
COMPOUND: CCOC(=O)CCC(NC(=O)C(N)c1ccc([N+](=O)[O-])cc1)C(=O)NC(CCC(=O)OCC)C(=O)OCC (centres undefined)
OBSERVABLE: growth inhibition
RESULT: 0.5
//
COMPOUND: O=C(Nc1ccc2c(c1)C(O)c1ccccc1-2)C(F)(F)F (centres undefined)
OBSERVABLE: growth inhibition
RESULT: 8.35

# next compound below
Which value of growth inhibition has been reported for CN1c2ccccc2C2=C(c3ccccc3)CC[C@@H](C(=O)N3C4CC5CC[C@@]4(CS3(=O)=O)C5(C)C)[C@@H]21 (some centres undefined) in the records?
10

###

test: NCI Yeast Anticancer Drug Screen. Data for the mlh1 rad18 strain (AID 175); conditions: S. cerevisiae mlh1 rad18 strain growth inhibition; at 50.0 µM
About 79,000 compounds went through this panel and 15% of them were active in at least one assay; those are over-represented in the sample as a whole. The source made the active and inactive calls. No stated cut-off is given here; in the data, active means growth inhibition above about 70%; inactive means the rest.
In this exercise, the only acceptable responses are True = active, False = inactive

Recorded results for 5 compounds are shown here.
COMPOUND: CN1C(=O)c2ccccc2C(O)(c2ccccc2)C1(O)c1ccccc1 (configuration not stated)
ASSIGNED CATEGORY: False
--
COMPOUND: C#CC(C)(C)OCC(O)CCl (configuration not stated)
ASSIGNED CATEGORY: False
--
COMPOUND: O=c1sc2ccccc2n1CCN(CCn1c(=O)sc2ccccc21)c1ccccc1
ASSIGNED CATEGORY: False
--
COMPOUND: O=S(=O)(OCCCC1CC2C=CC1C2)c1ccc(Br)cc1 (configuration not stated)
ASSIGNED CATEGORY: False
--
COMPOUND: N#Cc1c(C#N)c(-c2ccccc2)n(-c2ccccc2)c1N
ASSIGNED CATEGORY: False

Alright, here's another compound for you.
Please state the recorded outcome for this compound: COc1ccc(OC)c(C2SCC(=O)N2c2nncs2)c1 (configuration not stated)
False

###

Measured growth inhibition accompanies every entry in the list below.
experiment: NCI Yeast Anticancer Drug Screen. Data for the mlh1 rad18 strain (AID 175); conditions: S. cerevisiae mlh1 rad18 strain growth inhibition; at 50.0 µM; hits give high values
This is part of a sample that, as a whole, favours compounds with a hit. Of some 79,000 tested, about 15% had one in any assay.
# number only, unit % dropped from output

MOLECULE: CCSC(N)=Nc1ccccc1 (tested in a mixture with another compound)
UNIT TAG: %
growth inhibition: 18.1

Which value of growth inhibition has been reported for C=C1C(=O)O[C@@H]2/C=C(/C)[C@@H](OC(C)=O)C[C@@H](O)/C(C)=C\[C@@H](OC(=O)[C@]3(C)O[C@@H]3C)[C@@H]12 in the records?
-63.6

Which value of growth inhibition has been reported for CCc1cc2c(oc3c4ccccc4ccc23)c(=O)[nH]1 in the records?
-7.55

Which value of growth inhibition has been reported for CC(=O)Nc1ccc2c(c1)C(=O)c1ccc(S(C)(=O)=O)cc1-2 in the records?
-3.35

Which value of growth inhibition has been reported for O=C(OCCNC1CCCCC1)c1ccc([N+](=O)[O-])cc1 in the records?
11.3

Which value of growth inhibition has been reported for Cc1ccc(S(=O)(=O)NC(=O)C#CCOC2CCCCO2)cc1 (centres undefined) in the records?
18.2

Which value of growth inhibition has been reported for ClC(c1ccccc1)(c1ccccc1)C(Cl)(c1ccccc1)c1ccccc1 in the records?
26.9

Which value of growth inhibition has been reported for CC(C)(C(=O)O)C(=O)O in the records?
3.1

Which value of growth inhibition has been reported for O=C(O)CCc1ccncc1 in the records?
-0.95

###

Measured growth inhibition accompanies every entry in the list below.
experiment: NCI Yeast Anticancer Drug Screen. Data for the mlh1 rad18 strain (AID 175); conditions: S. cerevisiae mlh1 rad18 strain growth inhibition; at 50.0 µM; hits give high values
Compounds without any hit were thinned out: in the full panel of roughly 79,000, 15% have a hit.
# number only, unit % dropped from output

Sample answers from the record:
MOLECULE: O=C(O)c1ccc(SSc2ccc(C(=O)O)cn2)nc1
growth inhibition (%): 14.9
--
MOLECULE: CC(=O)OC[C@@H](OC(C)=O)[C@@H](OC(C)=O)[C@H]1OC[C@@H]2C[C@H]([C@H]1OC(C)=O)N(Cc1ccccc1)O2
growth inhibition (%): -0.3
--
MOLECULE: CCC(C)(C)N
growth inhibition (%): -20.2
--
MOLECULE: COc1ccc(C23CCC(=O)N2CCS3)cc1 (centres undefined)
growth inhibition (%): 2.8
--
MOLECULE: CC(=O)C(C(C)=O)[N+](=O)[O-].CC(=O)C(C(C)=O)[N+](=O)[O-].[Cu]
growth inhibition (%): 10.6
--
MOLECULE: Oc1ccc(Oc2cc3c(cc2Oc2ccc(O)cc2)-c2nc-3nc3[nH]c(nc4nc(nc5[nH]c(n2)c2cc(Oc6ccc(O)cc6)c(Oc6ccc(O)cc6)cc52)-c2cc(Oc5ccc(O)cc5)c(Oc5ccc(O)cc5)cc2-4)c2cc(Oc4ccc(O)cc4)c(Oc4ccc(O)cc4)cc32)cc1
growth inhibition (%): -104
--
MOLECULE: CCc1nc(N)nc(N)c1-c1ccc(NCCN)c(N)c1
growth inhibition (%): 8.5
--
MOLECULE: COc1ccc(OC)c(NC(=O)NN(C)C)c1
growth inhibition (%): -21.6

Which value of growth inhibition has been reported for C[CH2][Ge]([CH2]C)([CH2]C)[O]C(=O)CCC(=O)[O][Ge]([CH2]C)([CH2]C)[CH2]C in the records?
14.7

Which value of growth inhibition has been reported for O=C(O)c1nc2nc(Cl)c(Cl)nc2[nH]1 in the records?
9.4

Which value of growth inhibition has been reported for C[CH2][Sn]([CH2]C)([N](c1ccccn1)c1ccccn1)[N](c1ccccn1)c1ccccn1 in the records?
-25.1

Which value of growth inhibition has been reported for CC(=O)NCC(O)C(O)C(O)C(O)COC(=O)c1ccccc1 (centres undefined) in the records?
-5

Which value of growth inhibition has been reported for CCCCCCCCCCCCCCCCCC(=O)CCCCCCCCCCCCCCCCC in the records?
-16.7

Which value of growth inhibition has been reported for Cc1ccc(NC(=O)c2ccc(Cl)cc2)cc1 in the records?
-3.55

Which value of growth inhibition has been reported for Cc1cc(C)c(S(N)(=O)=O)c(C)c1 in the records?
-0.8

Which value of growth inhibition has been reported for O=C(O)CCCCCNCC(CNCCCCCC(=O)O)(C(=O)O)C(=O)O in the records?
5.2

Which value of growth inhibition has been reported for Cn1c(=O)c2c(ncn2C2C(=O)NNC2=O)n(C)c1=O in the records?
0.9

Which value of growth inhibition has been reported for CSc1nc(NC2OCC(O)C(O)C2O)c(Cl)c(=O)[nH]1 (centres undefined) in the records?
0.75

###

Measured growth inhibition accompanies every entry in the list below.
assay: NCI Yeast Anticancer Drug Screen. Data for the rad50 strain (AID 155);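 note: 0% = growth of vehicle-only cultures of the same strain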; details: S. cerevisiae rad50 strain growth inhibition; at 50.0 µM; hits give high values
About 79,000 compounds went through this panel and 15% of them were active in at least one assay; those are over-represented in the sample as a whole.
# number only, unit % dropped from output

Sample answers from the record:
COMPOUND: CCSC(C(O)C(O)C(O)C(O)CO)n1cnc2c(SC)ncnc21 (configuration not stated)
RESULT: 20.1

COMPOUND: Cc1cnoc1/N=C1\C=C(Nc2oncc2C)C(=O)c2ccccc21
RESULT: -14.7

COMPOUND: CCOC(=O)c1c[nH]c2cc3c(cc2c1=O)CCS3
RESULT: -27.4

COMPOUND: CCOC(=O)C1=NN(c2ccccc2)C(=O)/C1=C\n1c(=S)sc2ccccc21
RESULT: -7.25

COMPOUND: CCOC(=O)N1C=Cc2c(c3ccccc3n2C)N1C(=O)OCC
RESULT: 3.85

Which value of growth inhibition has been reported for Fc1ccc(N2CSC(=S)N(c3ccc(F)cc3F)C2)c(F)c1 in the records?
8.95

Which value of growth inhibition has been reported for C=C1OC(=O)C(N)=C1C(C)=O in the records?
-2.65

These measurements were taken from PubChem BioAssay (NCI).
